These entries and their values trace back to patent US8148407B2.

metricName: melting point

[
  {
    "givenSmiles": "Cc1cc(-c2cncc(O[C@@H]3SC[C@@H](O)[C@H](O)[C@H]3O)c2)ccc1C#N",
    "metricName": "melting point",
    "result": "198 to 200 °C"
  },
  {
    "givenSmiles": "CC(=O)c1cccc(-c2ncccc2O[C@@H]2SC[C@@H](O)[C@H](O)[C@H]2O)c1",
    "metricName": "melting point",
    "result": "128 to 133 °C"
  },
  {
    "givenSmiles": "COc1ccc(-c2cncc(O[C@@H]3SC[C@@H](O)[C@H](O)[C@H]3O)c2)c(Cl)c1",
    "metricName": "melting point",
    "result": "218 °C"
  },
  {
    "givenSmiles": "O[C@@H]1[C@@H](O)[C@H](Oc2ccc(-c3ccc(F)cc3)nc2)SC[C@H]1O",
    "metricName": "melting point",
    "result": "180 to 183 °C"
  }
]

----------
metricName: melting point

[
  {
    "givenSmiles": "O[C@@H]1[C@@H](O)[C@H](Oc2cncc(Oc3ccccc3)c2)SC[C@H]1O",
    "metricName": "melting point",
    "result": "226 °C"
  },
  {
    "givenSmiles": "COc1ccc(-c2cc(O[C@@H]3SC[C@@H](O)[C@H](O)[C@H]3O)ccn2)cc1",
    "metricName": "melting point",
    "result": "150 to 154 °C"
  },
  {
    "givenSmiles": "O=S(=O)(c1ccc(F)cc1)c1cncc(O[C@@H]2SC[C@@H](O)[C@H](O)[C@H]2O)c1",
    "metricName": "melting point",
    "result": "93 to 96 °C"
  },
  {
    "givenSmiles": "Cc1ccc(-c2cncc(O[C@@H]3SC[C@@H](O)[C@H](O)[C@H]3O)c2)cc1F",
    "metricName": "melting point",
    "result": "213 °C"
  },
  {
    "givenSmiles": "CC(=O)c1cccc(-c2ccc(O[C@@H]3SC[C@@H](O)[C@H](O)[C@H]3O)cn2)c1",
    "metricName": "melting point",
    "result": "159 to 163 °C"
  },
  {
    "givenSmiles": "Cc1cc(C#N)ccc1-c1cncc(O[C@@H]2SC[C@@H](O)[C@H](O)[C@H]2O)c1",
    "metricName": "melting point",
    "result": "202 to 206 °C"
  },
  {
    "givenSmiles": "N#Cc1ccc(-c2ccncc2O[C@@H]2SC[C@@H](O)[C@H](O)[C@H]2O)cc1",
    "metricName": "melting point",
    "result": "238 °C"
  },
  {
    "givenSmiles": "N#Cc1ccc(-c2cncc(O[C@@H]3SC[C@@H](O)[C@H](O)[C@H]3O)c2)cc1F",
    "metricName": "melting point",
    "result": "214 °C"
  }
]

----------
melting point reference

[
  {
    "givenSmiles": "OCc1ccc(-c2ccc(O[C@@H]3SC[C@@H](O)[C@H](O)[C@H]3O)cn2)cc1",
    "displayUnit": "°C",
    "melting point": 215
  },
  {
    "givenSmiles": "Cc1cc(-c2cncc(O[C@@H]3SC[C@@H](O)[C@H](O)[C@H]3O)c2)ccc1F",
    "displayUnit": "°C",
    "melting point": 197
  },
  {
    "givenSmiles": "N#Cc1ccc(-c2cncc(O[C@@H]3SC[C@@H](O)[C@H](O)[C@H]3O)c2)cc1C#N",
    "displayUnit": "°C",
    "melting point": 192
  },
  {
    "givenSmiles": "O[C@@H]1[C@@H](O)[C@H](Oc2cccnc2-c2ccc(F)cc2)SC[C@H]1O",
    "displayUnit": "°C",
    "melting point": 110
  },
  {
    "givenSmiles": "COc1ccc(-c2nccc(C)c2O[C@@H]2SC[C@@H](O)[C@H](O)[C@H]2O)cc1",
    "displayUnit": "°C",
    "melting point": 101
  },
  {
    "givenSmiles": "N#Cc1cccc(-c2cncc(O[C@@H]3SC[C@@H](O)[C@H](O)[C@H]3O)c2)c1",
    "displayUnit": "°C",
    "melting point": 172
  },
  {
    "givenSmiles": "COc1ccc(-c2cncc(O[C@@H]3SC[C@@H](O)[C@H](O)[C@H]3O)c2)cc1OC",
    "displayUnit": "°C",
    "melting point": 211
  },
  {
    "givenSmiles": "COc1c(F)cc(-c2cncc(O[C@@H]3SC[C@@H](O)[C@H](O)[C@H]3O)c2)cc1F",
    "displayUnit": "°C",
    "melting point": 203
  },
  {
    "givenSmiles": "COc1ccc(-c2cncc(O[C@@H]3SC[C@@H](O)[C@H](O)[C@H]3O)c2)c(C)c1",
    "displayUnit": "°C",
    "melting point": 231
  },
  {
    "givenSmiles": "Cc1ccc(-c2cncc(O[C@@H]3SC[C@@H](O)[C@H](O)[C@H]3O)c2)cc1",
    "displayUnit": "°C",
    "melting point": 228
  },
  {
    "givenSmiles": "Cc1cc(F)ccc1-c1cncc(O[C@@H]2SC[C@@H](O)[C@H](O)[C@H]2O)c1",
    "displayUnit": "°C",
    "melting point": 217
  },
  {
    "givenSmiles": "COc1ccc(-c2ccncc2O[C@@H]2SC[C@@H](O)[C@H](O)[C@H]2O)cc1",
    "displayUnit": "°C",
    "melting point": 228
  },
  {
    "givenSmiles": "Cc1ccc(-c2cncc(O[C@@H]3SC[C@@H](O)[C@H](O)[C@H]3O)c2)c(Cl)c1",
    "displayUnit": "°C",
    "melting point": 207
  },
  {
    "givenSmiles": "O[C@@H]1[C@@H](O)[C@H](Oc2cncc(-c3c(F)cc(F)cc3F)c2)SC[C@H]1O",
    "displayUnit": "°C",
    "melting point": 228
  },
  {
    "givenSmiles": "CCN(CC)C(=O)c1cncc(O[C@@H]2SC[C@@H](O)[C@H](O)[C@H]2O)c1",
    "displayUnit": "°C",
    "melting point": 143
  },
  {
    "givenSmiles": "O[C@@H]1[C@@H](O)[C@H](Oc2cncc(-c3ccc(N4CCCCC4)cc3)c2)SC[C@H]1O",
    "displayUnit": "°C",
    "melting point": 196
  }
]

----------
melting point reference
metricName: melting point (°C)

[
  {
    "givenSmiles": "Cc1cc(F)ccc1-c1cc(O[C@@H]2SC[C@@H](O)[C@H](O)[C@H]2O)ccn1",
    "metricName": "melting point",
    "result": 147
  },
  {
    "givenSmiles": "COc1ccc(-c2cncc(O[C@@H]3SC[C@@H](O)[C@H](O)[C@H]3O)c2)cc1Cl",
    "metricName": "melting point",
    "result": 165
  },
  {
    "givenSmiles": "Cc1ccc(-c2cncc(O[C@@H]3SC[C@@H](O)[C@H](O)[C@H]3O)c2)cc1C",
    "metricName": "melting point",
    "result": 184
  },
  {
    "givenSmiles": "COc1c(C)cc(-c2cncc(O[C@@H]3SC[C@@H](O)[C@H](O)[C@H]3O)c2)cc1C",
    "metricName": "melting point",
    "result": 173
  }
]

----------
melting point reference

[
  {
    "givenSmiles": "CC(C)Oc1ccc(-c2cncc(O[C@@H]3SC[C@@H](O)[C@H](O)[C@H]3O)c2)cc1",
    "melting point": "158 °C"
  },
  {
    "givenSmiles": "CN(C)c1ccc(-c2cncc(O[C@@H]3SC[C@@H](O)[C@H](O)[C@H]3O)c2)cc1",
    "melting point": "240 °C"
  },
  {
    "givenSmiles": "COc1ccc(-c2ccc(O[C@@H]3SC[C@@H](O)[C@H](O)[C@H]3O)cn2)cc1",
    "melting point": "164 °C"
  }
]

----------
[
  {
    "givenSmiles": "CC(=O)O[C@@H]1[C@@H](OC(C)=O)[C@H](OC(C)=O)CS[C@H]1Oc1cncc(C(C)=O)c1",
    "displayUnit": "°C",
    "melting point": 157
  },
  {
    "givenSmiles": "CC(=O)c1ncccc1O[C@@H]1SC[C@@H](O)[C@H](O)[C@H]1O",
    "displayUnit": "°C",
    "melting point": 123
  },
  {
    "givenSmiles": "N#Cc1cc(-c2cncc(O[C@@H]3SC[C@@H](O)[C@H](O)[C@H]3O)c2)ccc1F",
    "displayUnit": "°C",
    "melting point": 197
  },
  {
    "givenSmiles": "COc1ccc(-c2cncc(O[C@@H]3SC[C@@H](O)[C@H](O)[C@H]3O)c2)cc1F",
    "displayUnit": "°C",
    "melting point": 200
  },
  {
    "givenSmiles": "COc1cc(F)c(-c2cncc(O[C@@H]3SC[C@@H](O)[C@H](O)[C@H]3O)c2)c(F)c1",
    "displayUnit": "°C",
    "melting point": 200
  },
  {
    "givenSmiles": "Cc1ccc(-c2ccc(O[C@@H]3SC[C@@H](O)[C@H](O)[C@H]3O)cn2)cc1",
    "displayUnit": "°C",
    "melting point": 191
  }
]
